Just for reference, ChEMBL document CHEMBL1135668 is where these values come from.

For each of the compounds below, state its CC50.
Tested on: Human immunodeficiency virus 1
test-details: Cytotoxic concentration (anti-HIV activity) required to reduce […] by 50% in MT-4 cells
Type: functional
experimental-parameters: Human immunodeficiency virus 1, MT4
Numbers only, in µM.

>>> measured_result("O=C1CSC(c2c(F)cccc2F)N1c1cccc(Br)n1 (configuration not stated)")
32
>>> measured_result("Cc1cccc(N2C(=O)CSC2c2c(F)cccc2Cl)n1 (configuration not stated)")
31.9
>>> measured_result("Cc1ccc(N2C(=O)CSC2c2c(F)cccc2F)nc1 (configuration not stated)")
202
>>> measured_result("O=C1CSC(c2c(Cl)cccc2Cl)N1c1ccccc1 (configuration not stated)")
38.1
>>> measured_result("Cc1ccc(N2C(=O)CSC2c2c(Cl)cccc2Cl)nc1 (configuration not stated)")
24.9

Please state CC50 for every compound in the list that follows.
1. O=C1CSC(c2c(F)cccc2F)N1c1ccc(Cl)cn1 (configuration not stated)
2. Cc1cc(C)nc(N2C(=O)CSC2c2c(Cl)cccc2Cl)c1 (configuration not stated)
3. O=C1CSC(c2c(Cl)cccc2Cl)N1c1ccc(Br)cn1 (configuration not stated)

1: 29.8; 2: 64.1; 3: 28.2

----------
test-details: Selectivity index as the ratio of CC50 to that of EC50 value in CEM cells
Type: functional, CCRF-CEM
observed-property: Selectivity index

>>> measured_result("O=C1CSC(c2c(F)cccc2F)N1c1cccc(Br)n1 (centres undefined)")
">8980"
>>> measured_result("Cc1cc(C)nc(N2C(=O)CSC2c2c(F)cccc2F)c1 (centres undefined)")
">=800"
>>> measured_result("O=C1CSC(c2c(Cl)cccc2Cl)N1c1cccc(Br)n1 (centres undefined)")
">1431"

----------
System: Human immunodeficiency virus 1
test-details: Cytotoxic concentration (anti-HIV activity) required to reduce […] by 50% in MT-4 cells
Format: functional
experimental-parameters: Human immunodeficiency virus 1, MT4
observed-property: CC50

Worked cases, answers included:
>>> measured_result("O=C1CSC(c2c(F)cccc2F)N1c1cccnc1 (centres undefined)")
"> 427 µM"
>>> measured_result("O=C1CSC(c2c(F)cccc2F)N1c1ccccn1 (centres undefined)")
"> 427 µM"
>>> measured_result("Cc1cccnc1N1C(=O)CSC1c1c(F)cccc1F (centres undefined)")
"> 319 µM"

--- query ---
Suppose we examine the compound Cc1ccnc(N2C(=O)CSC2c2c(Cl)cccc2Cl)c1 (centres undefined) ; what CC50 value has been reported? > 368 µM
